Tested on: Mono-Mac-6
Test: cell viability (% survival relative to DMSO control, bortezomib = 0%); higher = less cytotoxic
Conditions: 10 nM; 72 h
# cell viability per entry
assayReadout: cell viability (%)

compound: CCC(CC#N)OC(=O)N[C@@H](C)c1cccc(NC(=O)Nc2ccc(-c3cnco3)c(OC)c2)c1 (stereo in doubt)
observedValue: 90.5
--
compound: c1ccc2c(c1)SCc1c-2[nH]c2ccccc12
observedValue: 105
--
compound: Cn1cc(C[C@@H](N)C(=O)O)c2ccccc21
observedValue: 102
--
compound: COc1cc(/C=C/c2ccc(OC)cc2OC)cc(OC)c1
observedValue: 97.2
--
compound: OC[C@H]1OC(O)C[C@@H](O)[C@@H]1O (stereo partly specified)
observedValue: 99.3
--
compound: CCCCC/C=C\C/C=C\C/C=C\C/C=C\CCCC(=O)C(F)(F)F
observedValue: 97.9
--
compound: O=C(Cc1cccc(OC(F)(F)F)c1)Nc1ccc(CCCCc2nnc(NC(=O)Cc3ccccn3)s2)nn1
observedValue: 84.5
--
compound: CN(C)C(=N)NC(=N)N
observedValue: 89.7
--
compound: CN(C)C(=O)n1nnnc1Cc1ccc(-c2ccccc2)cc1
observedValue: 102
--
compound: Cl.NC1=CCCN1Cc1nc(O)nc(O)c1Cl
observedValue: 96.2
--
compound: CC(=O)N[C@@H](CS)C(=O)O
observedValue: 96.3
--
compound: N=C(N)c1ccc(N=NNc2ccc(C(=N)N)cc2)cc1
observedValue: 100
--
compound: NC(CCC(=O)NC(CSCc1ccc(Br)cc1)C(=O)NCC(=O)OC1CCCC1)C(=O)OC1CCCC1 (stereo unspecified)
observedValue: 96.5
--
compound: NS(=O)(=O)c1ccc(S(=O)(=O)Nc2cccc3c(Cl)c[nH]c23)cc1
observedValue: 95.3
--
compound: O=[As]O[As]=O (stereo unspecified) [Arsenic trioxide]
observedValue: 104
--
compound: O=c1[nH]c(=O)n([C@H]2C[C@H](O)[C@@H](CO)O2)cc1I
observedValue: 91.4
--
compound: O=C1N[C@@H]2[C@@H](O)[C@@H](O)[C@H](O)[C@@H](CO)N2C1=O
observedValue: 102
--
compound: O[C@H]1[C@H](O)[C@@H](O)CN2CC[C@H](O)[C@H]12
observedValue: 97.3
--
compound: O=C(/C=C/c1cccnc1)NCCCCC1CCN(C(=O)c2ccccc2)CC1
observedValue: 75.4
--
compound: CCCCCCCNC=O [N-Heptyl-Formamide]
observedValue: 97.3
--
compound: OCCN(CCO)c1nc(N2CCCCC2)c2nc(N(CCO)CCO)nc(N3CCCCC3)c2n1
observedValue: 103
--
compound: CNC(=C[N+](=O)[O-])NCCSCc1ccc(CN(C)C)o1
observedValue: 96.6
--
compound: CC(=O)N1CCN(c2ccc(OC[C@@H]3CO[C@@](Cn4ccnc4)(c4ccc(Cl)cc4Cl)O3)cc2)CC1 (racemic)
observedValue: 91.8
--
compound: c1ccc2nc(-c3nnc4sc(-c5cnccn5)nn34)ccc2c1
observedValue: 108
--
compound: O=C(CCl)N(CCCNC(=O)C(F)(F)F)c1ccc([N+](=O)[O-])cc1
observedValue: 104
--
compound: O=C(c1c2ccccc2cc2ccccc12)N1CCC(N2CCC[C@@H](C(=O)N3CCOCC3)C2)CC1
observedValue: 109

====

# IC50 (cell viability) per entry
System: Mono-Mac-6
Conditions: 72 h
assayReadout: IC50 (cell viability)

molecule: CC(C)(F)C[C@H](N[C@@H](c1ccc(-c2ccc(S(C)(=O)=O)cc2)cc1)C(F)(F)F)C(=O)NC1(C#N)CC1
assayReadout: IC50 (cell viability)
observedValue: > 10 µM
--
molecule: COc1cc(/C=C/c2ccc(OC)cc2OC)cc(OC)c1
assayReadout: IC50 (cell viability)
observedValue: > 10 µM
--
molecule: O=C(CCl)N(CCCNC(=O)C(F)(F)F)c1ccc([N+](=O)[O-])cc1
assayReadout: IC50 (cell viability)
observedValue: 0.896 µM
--
molecule: O=c1[nH]c(=O)n([C@H]2C[C@H](O)[C@@H](CO)O2)cc1I
assayReadout: IC50 (cell viability)
observedValue: 6.63 µM
--
molecule: Cc1cc(O)c2c(c1)C(=O)c1cc(O)cc(O)c1C2=O
assayReadout: IC50 (cell viability)
observedValue: > 10 µM
--
molecule: N[C@@H](CCC(=O)N[C@@H](CS)C(=O)NCC(=O)O)C(=O)O
assayReadout: IC50 (cell viability)
observedValue: > 10 µM
--
molecule: CCC(CC#N)OC(=O)N[C@@H](C)c1cccc(NC(=O)Nc2ccc(-c3cnco3)c(OC)c2)c1 (stereo in doubt)
assayReadout: IC50 (cell viability)
observedValue: 0.151 µM
--
molecule: Cc1nc(-c2ccc(OCC(C)C)c(C#N)c2)sc1C(=O)O
assayReadout: IC50 (cell viability)
observedValue: > 10 µM

====

Test system: THP-1
Assay: cell viability (% survival relative to DMSO control, bortezomib = 0%); higher = less cytotoxic
Settings: 100 nM; 72 h
assayReadout: cell viability

molecule: OC[C@H]1OC(O)C[C@@H](O)[C@@H]1O (stereo not given in full) [2-deoxyglucose]
assayReadout: cell viability
observedValue: 105%
--
molecule: O=C1N[C@@H]2[C@@H](O)[C@@H](O)[C@H](O)[C@@H](CO)N2C1=O [Kifunensine]
assayReadout: cell viability
observedValue: 97.7%
--
molecule: Cc1nc(-c2ccc(OCC(C)C)c(C#N)c2)sc1C(=O)O [Febuxostat]
assayReadout: cell viability
observedValue: 95.1%
--
molecule: COc1cc(/C=C/c2ccc(OC)cc2OC)cc(OC)c1 [2,3',4,5'-Tetramethoxystilbene]
assayReadout: cell viability
observedValue: 108%
--
molecule: CCC(CC#N)OC(=O)N[C@@H](C)c1cccc(NC(=O)Nc2ccc(-c3cnco3)c(OC)c2)c1 (stereo in doubt) [AVN-944]
assayReadout: cell viability
observedValue: 101%
--
molecule: Cn1c2cc(S(C)=O)sc2c2cnn(Cc3cccc(N)c3)c(=O)c21 (stereo not given) [TEPP-46]
assayReadout: cell viability
observedValue: 97.5%
--
molecule: c1ccc2c(c1)SCc1c-2[nH]c2ccccc12
assayReadout: cell viability
observedValue: 106%
--
molecule: Oc1ncc(F)c(O)n1 [5-fluorouracil]
assayReadout: cell viability
observedValue: 99.3%
--
molecule: Cl.OC[C@H]1NC[C@H](O)[C@@H](O)[C@H]1O [Migalastat]
assayReadout: cell viability
observedValue: 104%
--
molecule: Clc1cc(Cl)c(OCC#CI)cc1Cl [Haloprogin]
assayReadout: cell viability
observedValue: 100%
--
molecule: CN(C)CCNC(=O)c1cccn2c(=O)c3cc4ccccc4cc3nc12 [Bmh-21]
assayReadout: cell viability
observedValue: 104%
--
molecule: CC(=O)N[C@@H](CS)C(=O)O [Acetylcysteine]
assayReadout: cell viability
observedValue: 101%
--
molecule: C=C1C(=O)O[C@H](CCCCCCCC)[C@H]1C(=O)O [C75]
assayReadout: cell viability
observedValue: 111%
--
molecule: Cc1cc(O)c2c(c1)C(=O)c1cc(O)cc(O)c1C2=O [Emodin]
assayReadout: cell viability
observedValue: 106%
--
molecule: O=C(Oc1cccc(F)c1OC(=O)c1cccc(O)c1)c1cccc(O)c1 [WZB117]
assayReadout: cell viability
observedValue: 101%
--
molecule: C=C1NC(=O)c2cc(CN(C)c3ccc(C(=O)N[C@@H](CCC(=O)O)C(=O)O)s3)ccc2N1 [Raltitrexed]
assayReadout: cell viability
observedValue: 61.4%
--
molecule: CN1CC(=O)N2[C@H](c3ccc4c(c3)OCO4)c3[nH]c4ccccc4c3C[C@@H]2C1=O [Tadalafil]
assayReadout: cell viability
observedValue: 94.9%
--
molecule: O=c1[nH]c(=O)n([C@H]2C[C@H](O)[C@@H](CO)O2)cc1I [Idoxuridine]
assayReadout: cell viability
observedValue: 99.6%
--
molecule: CNC(=C[N+](=O)[O-])NCCSCc1ccc(CN(C)C)o1 [Ranitidine]
assayReadout: cell viability
observedValue: 98.2%
--
molecule: N[C@@H](CCC(=O)N[C@@H](CS)C(=O)NCC(=O)O)C(=O)O [Glutathione]
assayReadout: cell viability
observedValue: 95.4%

====

System: myeloid leukemia patient primary cells Pat.7
Experiment: cell viability (% survival relative to DMSO control); higher = less cytotoxic
Conditions: 1000 nM; 72 h

compound: Clc1cc(Cl)c(OCC#CI)cc1Cl [Haloprogin]
cell viability: 3.48%

compound: Cc1nnc(-c2ccc(N3CCC(Oc4ccccc4C(F)(F)F)CC3)nn2)s1 [MF-438]
cell viability: 74.4%

compound: CN(C)CCNC(=O)c1cccn2c(=O)c3cc4ccccc4cc3nc12 [Bmh-21]
cell viability: 14.1%

compound: c1ccc2c(c1)SCc1c-2[nH]c2ccccc12
cell viability: 41.6%

compound: Nc1ccn([C@@H]2O[C@H](CO)[C@@H](O)C2(F)F)c(=O)n1 [Gemcitabine]
cell viability: 65%

compound: O=C(c1c2ccccc2cc2ccccc12)N1CCC(N2CCC[C@@H](C(=O)N3CCOCC3)C2)CC1
cell viability: 19%
